Numbers sourced from ChEMBL document CHEMBL4400545.

Parameter: Activity. Scope: all listed entries.
Test target: Sodium- and chloride-dependent GABA transporter 1 (Mus musculus)
Method description: Inhibition of mouse GAT-1 assessed as percentage of remaining specific binding of NO711 at 1 uM after 4 hrs by LC-ESI-MS/ms analysis relative to control
Give the value, in units of %, as a plain number.

{"Compound": "O=C(O)C1CCCN(CCO/N=C/c2cccc(Br)n2)C1 (racemic)", "Test target": "Sodium- and chloride-dependent GABA transporter 1 (Mus musculus)", "Activity, %": 71}

Activity reported for this compound O=Cc1cccnc1-c1cccc(Cl)c1 : 80

Lab note: O=Cc1ccccc1OCc1ccccc1 gave Activity of 90

// Activity lookup, compound = O=Cc1ccc(-c2ccccc2)cc1 , result: 90

response.value for Cc1onc(-c2ccc(Cl)cc2)c1C=O (field: Activity) = 92

# Activity of O=C(O)C1CCCN(CCO/N=C/c2ccc(-c3ccccc3OC(F)(F)F)o2)C1 (racemic) = 84
